subject_of_test: human OX2R (Homo sapiens, UniProt O43614)
Sequence (O43614 whole entry): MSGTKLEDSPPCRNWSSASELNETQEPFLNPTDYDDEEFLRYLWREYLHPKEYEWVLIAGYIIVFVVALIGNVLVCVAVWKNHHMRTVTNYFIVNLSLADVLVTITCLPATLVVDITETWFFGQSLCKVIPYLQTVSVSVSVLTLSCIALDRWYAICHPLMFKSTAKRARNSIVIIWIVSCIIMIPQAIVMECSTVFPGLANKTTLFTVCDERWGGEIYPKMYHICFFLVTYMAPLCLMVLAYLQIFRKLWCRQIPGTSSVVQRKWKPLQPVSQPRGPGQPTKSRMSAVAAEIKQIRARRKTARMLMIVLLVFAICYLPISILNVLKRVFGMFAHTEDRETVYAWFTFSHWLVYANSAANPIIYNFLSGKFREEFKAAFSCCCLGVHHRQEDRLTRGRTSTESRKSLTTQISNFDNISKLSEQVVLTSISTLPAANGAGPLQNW
test_protocol: IPOne (IP-1 accumulation) assay in CHO cells expressing human OX2R
measurement_setup: CHO cells expressing human OX2R; IP-One assay, 2 h incubation; four parameter logistic fit; read-out: OX2R Potency, EC50
Give measured log10 EC50 for each item. Keep answers brief.
Plainly stated, the numbers are log10 of EC50 given in nM.

CCC(NC(=O)N(CC)[C@@H](c1cc(-c2cn3cc(C)nc3c(OC)n2)c(OC)cn1)C(F)(F)F)C1CC1C(F)(F)F (some centres unmarked) [Example 6-6]
1.85
CCN(C(=O)NC(C#N)C1CCCC(F)(F)C1)[C@H](C)c1cccc(-c2cn3ccnc3c(OC)n2)c1 (single isomer, unassigned) [Example 16]
0.51
CCN(C(=O)N[C@@H](CCC(F)(F)F)C(F)(F)F)[C@H](C)c1cccc(-c2cc(OC)c3ncc(Cl)n3c2)c1 [Example 8-9]
-0.15

List reported log10 EC50 for each of these molecules:
1. CCN(C(=O)N[C@@H](CCC(F)(F)F)C(F)(F)F)C(c1cc(-c2cn3cc(C)nc3c(OC)n2)c(OC)cn1)C1CC1 (some centres unmarked) [Example 2-16]
2. CCOc1cc(-c2cccc([C@@H](C)N(CC)C(=O)N[C@H](CC)CCC(F)(F)F)c2)cn2ccnc12 [Example 8-2]
3. CCN(C(=O)NC(C1CCCOC1)C(F)(F)F)[C@@H](c1cc(-c2cn3cc(C)nc3c(OC)n2)c(OC)cn1)C(F)(F)F (some centres unmarked) [Example 2-47]
4. CCN(C(=O)NC(C#N)c1cccc(C(F)(F)F)c1)[C@H](C)c1cccc(-c2cn3ccnc3c(OC)n2)c1 (some centres unmarked) [Example 1-12]
5. CCN(C(=O)NC(C1CCOCC1)C(F)(F)F)[C@@H](c1cc(-c2cn3cc(C)nc3c(OC)n2)c(OC)cn1)C(F)(F)F (some centres unmarked) [Example 2-48]

1.74
0.81
1.22
1.30
1.25

List reported log10 EC50 for each of these molecules:
1. CCC(CCC(F)(F)F)NC(=O)N(CC)[C@H](C)c1cccc(-c2cn3ccnc3cc2COC)c1 (some centres unmarked) [Example 7-6]
2. CC[C@H](CCC(F)(F)F)NC(=O)N(CC)[C@H](C)c1ccc(Cl)c(-c2cc(OC)c3nccn3c2)c1 [Example 14-2]
3. CC[C@H](CCC(F)(F)F)NC(=O)N(CC)[C@H](C)c1ccc(OC)c(-c2cnc3[nH]ccc3c2)c1 [Example 8-5]
4. CC[C@H](CCC(F)(F)F)NC(=O)N(CC)[C@H](C)c1ccc(OC)c(-c2cc(C)c3nccn3c2)c1 [Example 8-3]
5. CCN(C(=O)N[C@@H](CCC(F)(F)F)C(F)(F)F)C(c1cnc(OC)c(-c2cn3ccnc3c(OC)n2)n1)C(F)(F)F (some centres unmarked) [Example 10-5]
6. CCN(C(=O)NC(CNS(=O)(=O)N(C)C)C(F)(F)F)[C@H](C)c1cccc(-c2cn3ccnc3c(OC)n2)c1 (some centres unmarked) [Example 17]

[3.15, 0.41, 1.68, 1.02, 0.40, -0.15]
